Tested on: arrhythmia induced by an intravenous administration of calcium chloride
Experiment: Antiarrhythmic activity on a model of arrhythmia induced by intravenous calcium chloride (antagonism to calcium) in mice
Format: in vivo
Details: white mice; intraperitoneal dose 15 mg/kg, 20-40 minutes before
Experimental: The specific (antiarrhythmic) effect and acute toxicity were studied. The antiarrhythmic activity of the compounds according to the present invention was studied on a model of arrhythmia induced by an intravenous administration of calcium chloride. In experiments on white mice of both sexes with a mass of 18-25 g narcotized by urethane (1,200 mg/kg intraperitoneally) ECG in the second standard lead was recorded. […]
List of Dose of calcium chloride causing death in animals under experiment values.
Value Kind: Dose of calcium chloride causing death in animals under experiment

INSERT INTO results (molecule, value_reported) VALUES
  ('COC(=O)C(C)CN(C(=S)Nc1ccccc1)N(C)C (stereo not drawn) [I-14]', '101,0 mg/kg'),
  ('C=CC(=O)N(CCC(=O)OC)N(C)C [I-34]', '136,0 mg/kg'),
  ('CN(C)N(CCC#N)C(=O)c1ccccc1F [I-63]', '128,0 mg/kg'),
  ('COC(=O)CCN(C(=O)c1ccc(Br)cc1)N(C)C [I-32]', '110,0 mg/kg'),
  ('COC(=O)CCN(C(C)=O)N(C)C [I-24]', '140,3 mg/kg'),
  ('COC(=O)CC(C(=O)OC)N(C(=O)c1ccccc1)N(C)C (stereo not drawn) [I-58]', '118,5 mg/kg'),
  ('COC(=O)N(CCC(N)=O)N(C)C [I-53]', '138,5 mg/kg'),
  ('C=CCNC(=S)N(CC(C)C(=O)OC)N(C)C (stereo not drawn) [I-13]', '138,0 mg/kg'),
  ('COC(=O)C(C)CN(C(C)=O)N(C)C (stereo not drawn) [I-37]', '138,0 mg/kg'),
  ('CN(C)N(CCC(N)=O)C(=S)Nc1ccccc1 [I-19]', '130,0 mg/kg'),
  ('CNC(=O)N(CC(C)C(=O)OC)N(C)C (stereo not drawn) [I-12]', '130,5 mg/kg'),
  ('COC(=O)CCN(C(=O)Cc1ccccc1)N(C)C [I-30]', '125,0 mg/kg');

* * *

System: arrhythmia induced by an intravenous administration of calcium chloride
Assay: Antiarrhythmic activity on a model of arrhythmia induced by intravenous calcium chloride (antagonism to calcium) in mice
Format: in vivo
Conditions: white mice; intraperitoneal dose 5 mg/kg, 20-40 minutes before
Value Kind: Dose of calcium chloride causing arrythmia in animals under experiment

INSERT INTO assay_data (molecule, value_reported) VALUES
  ('CN(C)N(CCC#N)C(=O)c1ccccc1', '108,3 mg/kg'),
  ('C=CCNC(=S)N(CCC#N)N(C)C', '92,5 mg/kg'),
  ('CNC(=S)N(CCC(=O)OC)N(C)C', '87,5 mg/kg'),
  ('CNC(=O)N(CC(C)C(=O)OC)N(C)C (centres unmarked)', '106,0 mg/kg'),
  ('COC(=O)N(CCC(N)=O)N(C)C', '98,5 mg/kg'),
  ('CNC(=O)N(CCC(N)=O)N(C)C', '97,8 mg/kg'),
  ('CN(C)N(CCC(N)=O)C(=S)Nc1ccccc1', '98,3 mg/kg'),
  ('C=CCNC(=S)N(CC(C)C(=O)OC)N(C)C (centres unmarked)', '117,3 mg/kg'),
  ('CN(C)N(CCC#N)C(=O)Nc1ccccc1', '105,0 mg/kg'),
  ('CCCCCCCCCCCCCCCCCC(=O)N(CCC(=O)OC)N(C)C', '90,1 mg/kg'),
  ('COC(=O)CCN(C(=O)Nc1ccccc1)N(C)C', '86,7 mg/kg');

* * *

Assay: in vivo
Settings: mouse, in vivo, ip
Value Kind: LD50 at 240 h (mg/kg)

INSERT INTO assay_data (compound, readout_relation, value_reported) VALUES
  ('CN(C)N(CCC#N)C(=O)c1ccccc1F [I-63]', '=', 1850),
  ('CCCC(=O)N(CCC(N)=O)N(C)C [I-48]', '=', 1700),
  ('CCOC(=O)CCN(C(=O)c1ccccc1)N(C)C [I-44]', '=', 1650),
  ('CCOC(=O)CCN(C(=S)Nc1ccccc1)N(C)C [I-10]', '=', 1800),
  ('COC(=O)CCN(C(C)=O)N(C)C [I-24]', '=', 1300),
  ('COC(=O)CCN(C(=O)Nc1ccc(NC(=O)N(CCC(=O)OC)N(C)C)cc1)N(C)C [I-4]', '=', 8000),
  ('C=CCNC(=S)N(CC(C)C(=O)OC)N(C)C (stereo not shown) [I-13]', '=', 1230),
  ('CCCCCC(=O)N(CCC(=O)OC)N(C)C [I-26]', '=', 630),
  ('CCCCCC(=O)N(CCC(=O)OCC)N(C)C [I-43]', '=', 1460),
  ('COC(=O)CCN(C(=O)CCO)N(C)C [I-35]', '>', 3000),
  ('CCCCCCCCCCCCCCCC(=O)N(CCC(=O)OC)N(C)C [I-27]', '=', 2380),
  ('CCCCCCCCOC(=O)CCN(C(=S)Nc1ccccc1)N(C)C [I-60]', '=', 2420),
  ('COC(=O)C(C)CN(C(C)=O)N(C)C (stereo not shown) [I-37]', '=', 810);

* * *

List of LD50 at 240 h values.
Assay: in vivo
Details: mouse, in vivo, ip
Value Kind: LD50 at 240 h

INSERT INTO measurements (compound, value_kind, value_reported) VALUES
  ('CCCCCC(=O)N(CCC(N)=O)N(C)C', 'LD50 at 240 h', '960 mg/kg'),
  ('CN(C)N(CCC#N)C(=S)Nc1ccccc1', 'LD50 at 240 h', '1680 mg/kg'),
  ('CN(C)N(CCC(N)=O)C(=O)CCO', 'LD50 at 240 h', '> 3000 mg/kg'),
  ('CCOC(=O)CCN(C(=O)NC)N(C)C', 'LD50 at 240 h', '1870 mg/kg'),
  ('C=CCNC(=S)N(CCC(=O)OC)N(C)C', 'LD50 at 240 h', '3200 mg/kg'),
  ('COC(=O)CCN(C(N)=O)N(C)C', 'LD50 at 240 h', '2080 mg/kg'),
  ('COC(=O)C(C)CN(C(=O)c1ccccc1)N(C)C (stereo not drawn)', 'LD50 at 240 h', '1750 mg/kg'),
  ('CC(CN(C(=S)Nc1ccccc1)N(C)C)C(N)=O (stereo not drawn)', 'LD50 at 240 h', '1340 mg/kg'),
  ('CN(C)N(CCC#N)C(=O)c1ccccc1', 'LD50 at 240 h', '1030 mg/kg'),
  ('COC(=O)CCN(C(=O)c1ccc(Br)cc1)N(C)C', 'LD50 at 240 h', '1680 mg/kg'),
  ('COC(=O)CCN(C(=S)Nc1ccccc1)N(C)C', 'LD50 at 240 h', '2100 mg/kg'),
  ('COC(=O)C(C)CN(C(=O)c1ccccc1F)N(C)C (stereo not drawn)', 'LD50 at 240 h', '1400 mg/kg');

* * *

Test system: white mice
Experiment: in vivo
Details: white mice, intraperitoneal; relative to quinidine
Value Kind: Relative toxisity to quinidine

INSERT INTO results (compound, value_reported) VALUES
  ('CN(C)N(CCC(N)=O)C(=O)Nc1ccccc1 [I-16]', '5,9'),
  ('COC(=O)CCN(C(=O)OC)N(C)C [I-36]', '8,8'),
  ('CCC(=O)N(CCC#N)N(C)C [I-62]', '5,9'),
  ('CCCCCC(=O)N(CCC(=O)OC)N(C)C [I-26]', '4,0'),
  ('COC(=O)C(C)CN(C(=O)c1ccc(Br)cc1)N(C)C (centres unmarked) [I-41]', '15,5'),
  ('C=C[C@H]1C[N@@]2CC[C@H]1C[C@@H]2[C@@H](O)c1ccnc2ccc(OC)cc12 [Quinidine, quinidine, reference compound]', 1),
  ('COC(=O)C(C)CN(C(C)=O)N(C)C (centres unmarked) [I-37]', '5,1'),
  ('COC(=O)N(CCC(N)=O)N(C)C [I-53]', '12,0');

* * *

List of Dose of calcium chloride causing arrythmia in animals under experiment values.
Tested on: arrhythmia induced by an intravenous administration of calcium chloride
Assay: Antiarrhythmic activity on a model of arrhythmia induced by intravenous calcium chloride (antagonism to calcium) in mice
Assay type: in vivo
Details: white mice; intraperitoneal dose 5 mg/kg, 20-40 minutes before
Value Kind: Dose of calcium chloride causing arrythmia in animals under experiment

INSERT INTO assay_data (compound, value_reported) VALUES
  ('CNC(=S)N(CCC(=O)O)N(C)C', '93,4 mg/kg'),
  ('COC(=O)C(C)CN(C(C)=O)N(C)C (stereo not drawn)', '100 mg/kg'),
  ('COC(=O)C(C)CN(C(=S)Nc1ccccc1)N(C)C (stereo not drawn)', '96,4 mg/kg'),
  ('COC(=O)CCN(C(=O)c1ccccc1COC(=O)c1ccccc1)N(C)C', '87,5 mg/kg'),
  ('C=CCNC(=S)N(CCC(=O)OCC)N(C)C', '91,8 mg/kg'),
  ('CCOC(=O)CCN(C(=O)c1ccc(Br)cc1)N(C)C', '98,0 mg/kg'),
  ('CCOC(=O)CCN(C(=O)c1ccccc1)N(C)C', '101,0 mg/kg'),
  ('CC(=O)N(CCC(N)=O)N(C)C', '103 mg/kg'),
  ('CCCCCC(=O)N(CCC(=O)OCC)N(C)C', '94,0 mg/kg'),
  ('CCCCCC(=O)N(CC(C)C(=O)OC)N(C)C (stereo not drawn)', '102,0 mg/kg'),
  ('COC(=O)CCN(C(=O)Cc1ccccc1)N(C)C', '94,0 mg/kg'),
  ('CNC(=S)N(CCC(N)=O)N(C)C', '87,5 mg/kg');
